In this section, each of the compounds is paired with its reported log10 of TGI.
# System: EKVX NSCLC
# Experiment Summary: NCI tumour cell line growth inhibition, 48 h
Units before log transform: µM; reported quantity: TGI; transform: log10.

Compound | log10 of TGI
OC1(c2ccc(Cl)cc2)c2ccc3ccccc3c2C2=N[C@H]3CCCC[C@@H]3N21 (some centres undefined) | 1.38
O=C1Nc2c(C(F)(F)F)cccc2[C@]1(c1ccc(O)cc1)c1ccc(OC(F)(F)F)cc1 | 1.33
CCC[CH2][Sn]([CH2]CCC)([O]C(=O)c1cccnc1SC)[O]C(=O)c1cccnc1SC | 0.35
CC(=O)OC/C=C(/C=C/CNC1CCCCC1)OC(C)=O | 1.48
CC[CH2][Sn]([CH2]CC)([O]C(=O)c1cccnc1SC)[O][Sn]([CH2]CC)([CH2]CC)[O]C(=O)c1cccnc1SC | 0.45

Quick one: log10 of TGI for O=C1c2cc(Cl)ccc2S(=O)(=O)c2c(NCCCNCCO)nc3ccccc3c21 ?
0.68

What does the data say about its log10 of TGI? Entry: Brc1ccc2c(-c3csc(-c4c[nH]c5ccc(Br)cc45)n3)c[nH]c2c1
0.85

What log10 of TGI value was documented for this compound, O/N=C/C1c2ccccc2-c2ccccc21 ?
1.45

* * *

This listing pairs molecules with measured TGI.
# Test system: RXF-631 renal
# Experiment Summary: NCI tumour cell line growth inhibition, 48 h

Molecule | Property | Experimental Result
COc1c(Br)cc(CC(N)=O)c(O)c1Br | TGI | > 100 µM

Looking for the measured TGI of COC(=O)/C=C/c1cc(OC)c(OC)c(OC)c1 , can you help?
> 100 µM

I am curious: what TGI value has been reported for O=C(O)C(CS)N=c1c2ccccc2n(O)c2ccccc12 (stereo not given) ?
> 100 µM

* * *

# System: EKVX NSCLC
# Experiment Summary: NCI tumour cell line growth inhibition, 48 h; in the data active means GI50 below about 0.43 µM; inactive means the rest
Write down one outcome, taken from active, inactive

Study these solved cases before continuing.
Compound | Target Of Assay | Label Value
N#Cc1ccc(O)c(C2=NCC(c3cccc(Oc4ccccc4)c3)O2)c1 (stereo unspecified) | EKVX NSCLC | inactive
C[C@@H]1OC(O)[C@@H](F)[C@H](O)[C@@H]1O (stereo partly specified) | EKVX NSCLC | inactive
COc1cc(C2NC(=O)c3ccccc3N2)ccc1OCCCCCOc1c(OC)cc(C2=NOC(c3cc(OC)c(OC)c(OC)c3)C2)cc1OC (stereo unspecified) | EKVX NSCLC | active
O=C(/C(Br)=C/c1ccccc1)c1ccccc1 | EKVX NSCLC | inactive
CCC[CH2][Sn]1([CH2]CCC)[O]Cc2nc(C)ccc2[O]1 | EKVX NSCLC | inactive

Fill in: this test's call for CC(C)(C)OC(=O)N1CCc2c(sc3ncnc(N/N=C/c4cccc5ccccc45)c23)C1 is ___
inactive

Record lookup: outcome of this test for Oc1ccc(CN2CCC(N3CCCCC3)CC2)c2cccnc12 ?
inactive

Could you please tell me the result logged for OCC(O)CC[CH2][Sn]([Br])([c]1ccccc1)[c]1ccccc1 (stereo unspecified) in this assay?
inactive

Record request — test call for N#CSc1c[nH]c2cccc(/C=C/C(=O)/C=C(/C=C/c3cccc4[nH]cc(SC#N)c34)OB(F)F)c12
inactive

Called result for COc1cc([N+](=O)[O-])cc2c3c(n(C)c12)[C@@]1(C)CCC2c4ccc(OCc5ccccc5)cc4CCC2C1C3 (stereo partly specified)
inactive

* * *

# Test system: K-562 leukemia
# Experiment Summary: NCI tumour cell line growth inhibition, 48 h
The entries below come with measured TGI values attached.

Compound | TGI
CC1=CC(=Nc2ccc(N(CCCl)CCCl)cc2)C=C(C)C1=O | > 100 µM

Which TGI value belongs to O/N=C/C1c2ccccc2-c2ccccc21 ?
67.3 µM

Record request: TGI value, item O=C(Nc1cccc(O)c1)C(=O)C(C(=O)c1ccccc1F)C1OC(=O)c2ccccc21 (stereo not given)
> 100 µM

Name the recorded TGI for CNC(=O)N(CCC#N)[C@H]1CCCC[C@@H]1N(C(=O)NC)c1ccccc1 .
> 100 µM

Data request, read-out TGI, for COCc1nc2c(OC)cc(-c3nc4ccc(N5CCN(C)CC5)cc4[nH]3)c(OC)c2[nH]1
> 100 µM

I'd like to know its TGI. The compound in question is CN1CCN(C(=O)OCc2nc3c(N4CCOCC4)nc(Cl)nc3n2C)CC1
15.7 µM

Fill in: TGI of O=C(N/N=C/c1ccco1)c1cc(I)cc(I)c1O is ___
> 50 µM

Name the recorded TGI for NC(N)=Nc1ncccc1[N+](=O)[O-] .
> 100 µM

What TGI value was documented for this compound, CC(C)(C)OC(=O)N1CCc2c(sc3ncnc(N/N=C/c4cccc5ccccc45)c23)C1 ?
62.4 µM

Entry C[C@]12CC[C@H]3[C@@H](CC=C4C[C@@H](O)CC[C@@]43C)[C@@H]1CC[C@@H]2N(CCO)CCO : reported TGI = ?
> 100 µM

* * *

# System: TK-10 renal
# Experiment Summary: NCI tumour cell line growth inhibition, 48 h
Property: TGI

Sample answers from the record:
Compound | Target Of Assay | TGI
COc1ccc(NC2=CC(=O)C(=O)c3ccccc32)nn1 | TK-10 renal | 9.92 µM
O=C1CSC(c2cccs2)N1c1nc2cc3sc(N4C(=O)CSC4c4cccs4)nc3cc2s1 (stereo not given) | TK-10 renal | > 50 µM
Brc1ccc2c(-c3csc(-c4c[nH]c5cc(Br)ccc45)n3)c[nH]c2c1 | TK-10 renal | > 100 µM
N#Cc1ccc(NC(=O)Nc2ccc(Oc3ccc(NC(=O)Nc4ccc(C#N)cc4)cc3)cc2)cc1 | TK-10 renal | 89 µM
O=C1/C(=C/c2ccccc2)CNC/C1=C\c1ccccc1 | TK-10 renal | 7.61 µM
N#Cc1cc([N+](=O)[O-])ccc1NC(=O)C(=O)Nc1n[nH]c(N)n1 | TK-10 renal | > 100 µM

Return reported TGI; argument: O=[N+]([O-])c1ccc(-c2ccc(-c3csc(Nc4ccccn4)n3)o2)cc1
56.1 µM

Look up TGI for this compound: N#Cc1cc2c(cc1Cl)Sc1nccn1S2(=O)=O
28 µM

Which TGI is reported for this compound? CC1=CC(=Nc2ccc(N(CCCl)CCCl)cc2)C=C(C)C1=O
5.55 µM

Would you mind telling me what TGI value was observed for CC[C@@H]1CN(C)[C@H]2Cc3c([nH]c4ccccc34)C(=O)C[C@H]1C2C(=O)OC (stereo not given in full) ?
> 100 µM

Fill in: TGI of Nc1nc(Cl)c2ncn(Cc3ccc(C45CC6CC(CC(C6)C4)C5)c(O)c3)c2n1 is ___
8.93 µM

Look up TGI: O=C(/C=C/c1c(O)ccc2ccccc12)c1cccc(O)c1
> 100 µM

Entry under review: Nc1ccc2[nH]c(-c3cccc(Cl)c3)cc(=O)c2c1 . Reported TGI?
8.55 µM

* * *

# Tested on: MOLT-4 leukemia
# Experiment Summary: NCI tumour cell line growth inhibition, 48 h
Property: TGI

Please review the following examples before continuing.
Compound | TGI
COc1cc(CN2CCCCC2)cc2cc(C(=O)O)c(=O)oc12 | > 100 µM
CN(C)S(=O)(=O)Nc1nnc(S(N)(=O)=O)s1 | > 100 µM
CN1C(=O)C2(Cc3cn(C45CC67SSC(CO)(C(=O)N6C4Nc4ccccc45)N(C)C7=O)c4ccccc34)SSC1(CO)C(=O)N2C (stereo not given) | 1.08 µM

Bench note: what TGI did Brc1cccc(C=NC23CC4CC(CC(C4)C2)C3)c1 show?
> 100 µM

Recorded TGI of O/N=C/C1c2ccccc2-c2ccccc21 , please.
52.6 µM

* * *

# Tested on: SN12C renal
# Experiment Summary: NCI tumour cell line growth inhibition, 48 h
Property: TGI

Take a look at these entries with their results.
Compound | Target Of Assay | Experimental Result
O=C(Cc1ccccc1)NN1C(=O)/C(=C\c2ccc([N+](=O)[O-])cc2)SC1=Nc1ccccc1 | SN12C renal | > 100 µM
CCC(C)c1c(Cl)nc(Cl)nc1Cl (configuration not stated) | SN12C renal | 85.4 µM
COC(=O)C1=Nc2c(C)nn(-c3ccccc3)c2N=C(c2ccc([N+](=O)[O-])cc2)C1 | SN12C renal | > 10 µM
Oc1ccc(NCc2nc3ccccc3[nH]2)cc1 | SN12C renal | > 100 µM
COC(=O)/C=C/c1cc(OC)c(OC)c(OC)c1 | SN12C renal | > 100 µM

Param item = COc1ccc(/C=C/CN(C)CCc2ccccc2)cc1OC ; retrieve measured TGI.
> 100 µM

// TGI lookup, key: O=C(c1ccccc1)c1nnc(C(=O)c2ccccc2)nn1
> 344 µM

What value of TGI has been recorded for this entry: OCc1c[nH]c2ccccc12
39.7 µM

Consider the compound shown here: O=C(Cc1ccc([N+](=O)[O-])cc1)OCC#CCOC(=O)Cc1ccc([N+](=O)[O-])cc1 What is its recorded TGI?
> 10 µM

May I ask what TGI has been recorded for CC[C@]1(O)C[C@@H]2CN(CCc3c([nH]c4ccccc34)[C@@](C(=O)OC)(c3cc4c(cc3OC)N(C)[C@H]3[C@@](O)(C(=O)OC)[C@H](OC(C)=O)[C@]5(CC)C=CCN6CC[C@]43[C@@H]65)C2)C1 ?
35.7 µM

Would you kindly share the measured TGI for CC1S/C(=N/c2nnc(-c3ccccc3)o2)NC1=O (configuration not stated) ?
> 100 µM

# query: TGI of entry O=C1CSC(c2cccs2)N1c1nc2cc3sc(N4C(=O)CSC4c4cccs4)nc3cc2s1 (configuration not stated)
> 50 µM
